This collection of values is drawn from patent US8263606B2.

PARAMETER: melting point

INSERT INTO assay_data (compound, value_observed) VALUES
  ('O=C1N(Cc2ncccc2C(F)(F)F)c2ccccc2C12COc1cc3c(cc12)OC(F)(F)O3 (centres unmarked)', '200 to 201 °C'),
  ('O=C1N(Cc2ncc(F)cc2F)c2ccccc2C12COc1cc3c(cc12)OCCO3 (centres unmarked)', '220 to 222 °C'),
  ('O=C1N(C[C@@H]2CCCN2)c2ccccc2C12COc1cc3c(cc12)CCO3 (some centres unmarked)', '83 to 86 °C'),
  ('CC(C)NC(=O)N1CCCC(CCN2C(=O)C3(COc4cc5c(cc43)OCO5)c3ccccc32)C1 (centres unmarked)', '206 to 208 °C'),
  ('N#Cc1ccc(CN2C(=O)C3(COc4cc5c(cc43)CCO5)c3ccccc32)cc1 (centres unmarked)', '69 to 71 °C'),
  ('CN1C(=O)C2(COc3cc4c(cc32)OCCO4)c2ccccc21 (centres unmarked)', '152 to 154 °C'),
  ('C[n+]1c(Cl)c[nH]c1CN1C(=O)C2(COc3cc4c(cc32)OCCO4)c2ccccc21 (centres unmarked)', '91 to 95 °C'),
  ('CC(C)(C)OC(=O)N1C(=O)C2(COc3cc4c(cc32)OCO4)c2c(Br)cccc21 (centres unmarked)', '154 to 156 °C');
